- Test system: K24384-001-R-PDC complex spheroids, viability
- PROTOCOL_NOTES: Anticancer human tumor K24384-001-R-PDC patient-derived pancreatic adenocarcinoma cell line growth inhibition [GQUAD]
- ASSAY_CONDITIONS: second compound 3.16 µM; first compound 10 µM; stronger effect = lower value
QUANTITY: viability, T/C (%)
Please give a number only; it is taken to be in %.

Challenge: Provide only the value of recorded viability, T/C for COc1ccc([C@@H](O)c2cc(-c3ncnc4cc(N5CCOCC5)ccc34)c(F)cc2Cl)nn1 + Cc1cnc(CNC(=O)c2c(=O)c3ccc(N4CCCN(C)CC4)nc3n3c2sc2ccccc23)cn1
Response given: 10.2

Challenge: Provide only the value of recorded viability, T/C for C#Cc1c(F)ccc2cc(O)cc(-c3ncc4c(N5CC6CCC(C5)N6)nc(OCC56CCCN5CC(F)C6)nc4c3F)c12 (centres undefined) + Cc1[nH]c2ccc(F)cc2c1-c1nc2c3cccnc3c3ncccc3c2[nH]1
Response given: 11.7

Challenge: Provide only the value of recorded viability, T/C for CCCS(=O)(=O)Nc1ccc(F)c(C(=O)c2c[nH]c3ncc(-c4ccc(Cl)cc4)cc23)c1F + Cc1cnc(CNC(=O)c2c(=O)c3ccc(N4CCCN(C)CC4)nc3n3c2sc2ccccc23)cn1
Response given: 16.2

Challenge: Provide only the value of recorded viability, T/C for CC(=O)O[C@H]1C(=O)[C@@]2(C)[C@H]([C@H](OC(=O)c3ccccc3)[C@]3(O)C[C@H](OC(=O)[C@H](O)[C@@H](NC(=O)c4ccccc4)c4ccccc4)C(C)=C1C3(C)C)[C@]1(OC(C)=O)CO[C@@H]1C[C@@H]2O + Cc1cnc(CNC(=O)c2c(=O)c3ccc(N4CCCN(C)CC4)nc3n3c2sc2ccccc23)cn1
Response given: 36.5

----------
- Test system: K24384-001-R-PDC complex spheroids, viability
- PROTOCOL_NOTES: Anticancer human tumor K24384-001-R-PDC cell line growth inhibition [GQUAD];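 note: spheroids exposed to compounds for seven days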
- ASSAY_CONDITIONS: curve of first compound; second compound 3.16 µM
pIC50: −log10 of the molar value.
QUANTITY: pIC50

Challenge: Answer briefly: pIC50 recorded on K24384-001-R-PDC complex spheroids, viability for Nc1ccn(C2OC(CO)C(O)C2(F)F)c(=O)n1 (stereo unspecified) + Cc1cnc(CNC(=O)c2c(=O)c3ccc(N4CCCN(C)CC4)nc3n3c2sc2ccccc23)cn1
Response given: > 7.50

Challenge: Answer briefly: pIC50 recorded on K24384-001-R-PDC complex spheroids, viability for Cc1cccc(N(C)C(=O)C2C(O)CCN2c2nc(C)cc(C(F)(F)F)c2C#N)c1 (stereo unspecified) + Cc1cnc(CNC(=O)c2c(=O)c3ccc(N4CCCN(C)CC4)nc3n3c2sc2ccccc23)cn1
Response given: > 7.50

Challenge: Answer briefly: pIC50 recorded on K24384-001-R-PDC complex spheroids, viability for CC(C)n1c(=O)n(C)c2cnc3cc(F)c(-c4ccc(OCCCN5CCCCC5)nc4)cc3c21 + Cc1[nH]c2ccc(F)cc2c1-c1nc2c3cccnc3c3ncccc3c2[nH]1
Response given: < 5.00

Challenge: Answer briefly: pIC50 recorded on K24384-001-R-PDC complex spheroids, viability for CC1COCCN1c1cc(-c2ccnn2C)c2ccnc(-c3ccn[nH]3)c2n1 (stereo unspecified) + Cc1cnc(CNC(=O)c2c(=O)c3ccc(N4CCCN(C)CC4)nc3n3c2sc2ccccc23)cn1
Response given: > 7.50

Challenge: Answer briefly: pIC50 recorded on K24384-001-R-PDC complex spheroids, viability for Cn1ncnc1[C@H]1c2n[nH]c(=O)c3cc(F)cc(c23)N[C@@H]1c1ccc(F)cc1 + Cc1cnc(CNC(=O)c2c(=O)c3ccc(N4CCCN(C)CC4)nc3n3c2sc2ccccc23)cn1
Response given: > 9.00

Challenge: Answer briefly: pIC50 recorded on K24384-001-R-PDC complex spheroids, viability for COc1ncnc(C2CC2)c1-c1ncc2cnn(Cc3ccc(-c4nc(C(F)(F)F)cn4C(C)C)cc3)c2n1 + CN(C)c1ccc(Nc2c3ccc(NC(=O)CCN4CCCC4)cc3nc3cc(NC(=O)CCN4CCCC4)ccc23)cc1
Response given: < 5.00
